Known log10 of IC50 of a selection of compounds
Target: full length recombinant Pim-2 protein (Homo sapiens)
Construct: by full length recombinant Pim-1, Pim-2, or Pim-3 protein; hexahistidine tag followed by a thrombin cleavage site (N); made in house; host or cells: Sf9 (baculovirus) or E. coli (pET28)
Test: Pim-2 enzyme assay (HTRF, phosphorylation of biotinylated-BAD (S112) peptide)
Assay type: biochemical
Details: enzyme assay, Pim-2; read-out: Pim2_IC50
endpoint-name: log10 of IC50 (log10 of the value in nM)

1. CN(C)c1cncc(-c2n[nH]c3ccc(-c4c(F)cccc4F)cc23)n1 = 3.32
2. COc1ccc2c(-c3ccc4[nH]nc(-c5cncc(N6CCC(N)CC6)n5)c4c3)ccnc2c1 = 1.74
3. NC1CCN(c2cncc(-c3n[nH]c4ccc(-c5cccc(F)n5)cc34)n2)CC1 = 1.52
4. c1cc2[nH]nc(-c3cncc(O[C@@H]4CCCNC4)n3)c2cc1-c1cncc(NC2CC2)n1 = 2.08
5. c1cc2[nH]nc(-c3cncc(O[C@@H]4CCCNC4)n3)c2cc1C1CCCOC1 (stereo partly drawn) = 2.16
6. C(=C\C1CC1)/c1ccc2[nH]nc(-c3cncc(O[C@@H]4CCCNC4)n3)c2c1 = 2.02
7. Cn1cc(-c2ccc3[nH]nc(-c4cncc(O[C@@H]5CCCNC5)n4)c3c2)cn1 = 1.48
8. CC(C)Oc1cncc(-c2ccc3[nH]cc(-c4ccc5cn[nH]c5c4)c3c2)n1 = 2.70
9. O=c1[nH]cncc1-c1ccc2[nH]nc(-c3cncc(O[C@@H]4CCCNC4)n3)c2c1 = 1.90
10. Fc1cccc(F)c1-c1ccc2[nH]nc(-c3cncc(Nc4ccccc4)n3)c2c1 = 3.02
11. NC1CCCN(c2cncc(-c3c[nH]c4ccc(-c5c(F)cccc5F)cc34)n2)C1 (stereo not drawn) = 1.99
12. CC(C)NC(=O)c1ccc(F)c(-c2ccc3[nH]nc(-c4cncc(O[C@@H]5CCCNC5)n4)c3c2)c1 = 1.15
13. NC1CCN(c2cncc(-c3n[nH]c4ccc(-c5cc(C(=O)N6CCOCC6)ccc5F)cc34)n2)CC1 = 1.61
14. COc1cncc(-c2ccc3[nH]nc(-c4ccnc(N5CCC(N)CC5)n4)c3c2)c1 = 0.85
15. C[C@H]1CCNC[C@@H]1Oc1cncc(-c2n[nH]c3ccc(-c4c(F)cccc4F)cc23)n1 [Example 195] = 1.18
16. NC1CCN(c2cncc(-c3n[nH]c4ccc(-c5ccccc5Cl)cc34)n2)CC1 = 1.53
17. NC1CCN(c2cncc(-c3n[nH]c4ccc(-c5cc6ccccc6nc5Cl)cc34)n2)CC1 = 2.45
18. NC1CCN(c2cncc(-c3n[nH]c4ccc(-c5cnc6[nH]nc(C(F)(F)F)c6c5)cc34)n2)CC1 = 1.54
19. NC1CCN(c2cncc(-c3c[nH]c4ccc(-c5c(F)cccc5F)cc34)n2)CC1 = 1.26
20. Cc1ccnc(-c2c[nH]c3ccc(-c4cncc(OC(C)C)n4)cc23)c1 = 3.33
21. CS(=O)(=O)c1cccc(-c2ccc3[nH]nc(-c4cncc(N5CCC(N)CC5)n4)c3c2)c1 = 2.27
22. Fc1cccc(F)c1-c1ccc2[nH]nc(-c3cncc(N4CCOCC4)n3)c2c1 = 3.21
23. C[C@@H]1CCNC[C@H]1Oc1cncc(-c2n[nH]c3ccc(-c4c(F)cccc4F)cc23)n1 = 2.27
24. CN(C)c1cccc(-c2ccc3[nH]nc(-c4cncc(N5CCC(N)CC5)n4)c3c2)c1 = 2.18
25. CCNc1cncc(-c2n[nH]c3ccc(-c4c(F)cccc4F)cc23)n1 = 2.81
26. COc1cc(-c2ccc3[nH]nc(-c4cncc(N5CCC(N)CC5)n4)c3c2)nc(OC)n1 = 1.98
27. NC1CCN(c2cncc(-c3n[nH]c4ccc(-c5ccnc6cc(F)ccc56)cc34)n2)CC1 = 2.18

###

Target: full length recombinant Pim-1 protein (Homo sapiens, UniProt P11309)
Construct: by full length recombinant Pim-1, Pim-2, or Pim-3 protein; hexahistidine tag followed by a thrombin cleavage site (N); made in house; host or cells: Sf9 (baculovirus) or E. coli (pET28)
Experiment: Pim-1 enzyme assay (HTRF, phosphorylation of biotinylated-BAD (S112) peptide)
Type: biochemical
Details: read-out: Pim_1_IC50
Description: These cDNAs were used as templates in PCR reactions to produce full-length DNA clones of the PIMs. […] This step was repeated 3× and the resin was transferred to a 2.5 cm glass column. […] Fractions were analyzed by SDS-PAGE and those containing the protein of interest were pooled and concentrated. […] The final buffer conditions were as follows: 60 mM Hepes, pH 7.0, 0.05% BSA, 2 mM DTT. […] For each plate, percent of control (POC) values were calculated for each well. […]
pIC50: −log10 of the molar value.
pIC50 vs 8: at or above is y, below is n.

1. COc1cncc(-c2n[nH]c3ccc(-c4cncc(NC5CC5)n4)cc23)n1 = y
2. CC(C)OC(=O)c1ccc2[nH]nc(-c3cncc(N4CCC(N)CC4)n3)c2c1 = y
3. c1cc2[nH]cc(-c3cncc(O[C@@H]4CCCNC4)n3)c2cc1-c1csc(N2CCCC2)n1 = n
4. O=C(NC1CC1)c1cccc(-c2ccc3[nH]nc(-c4cncc(O[C@H]5CNCCC56CC6)n4)c3c2)c1 = y
5. COc1cc(N[C@@H]2CCCNC2)nc(-c2c[nH]c3ccc(-c4c(F)cccc4F)cc23)n1 = n
6. O[C@@H]1CN(c2cncc(-c3n[nH]c4ccc(-c5c(F)cccc5F)cc34)n2)CC[C@@H]1O (single isomer, unassigned) [Example 249] = n
7. CN(C)c1nc(-c2n[nH]c3ccc(Nc4c(F)cccc4F)cc23)cc(=O)[nH]1 = n

###

Molecular target: Pim-1 stably transfected into the U2OS human osteogenic sarcoma line (Homo sapiens, UniProt P11309)
Construct: expressed in transfected cells; host or cells: U2OS human osteogenic sarcoma line
Sequence (P11309 whole entry): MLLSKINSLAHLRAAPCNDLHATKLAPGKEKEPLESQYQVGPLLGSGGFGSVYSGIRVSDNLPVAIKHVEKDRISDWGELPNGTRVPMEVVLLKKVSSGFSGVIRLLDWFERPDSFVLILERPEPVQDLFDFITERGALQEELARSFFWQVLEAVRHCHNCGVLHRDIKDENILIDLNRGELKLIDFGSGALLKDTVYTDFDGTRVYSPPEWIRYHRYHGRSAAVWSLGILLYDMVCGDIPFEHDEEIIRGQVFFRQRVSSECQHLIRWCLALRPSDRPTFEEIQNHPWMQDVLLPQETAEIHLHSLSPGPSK
Assay: Pim cell assay, phospho-BAD normalized against total BAD, U2OS stably transfected with Pim-1
Type: cell-based
Conditions: U2OS cells stably transfected with Pim-1, phospho-BAD; high dose […]; read-out: Pim1_Cell_IC50
pIC50: −log10 of the molar value.
endpoint-name: pIC50

1. NC1CCN(c2cncc(-c3n[nH]c4ccc(N5CCCCC5)cc34)n2)CC1 = 6.13
2. c1cc(C2CC2)nc(-c2ccc3[nH]nc(-c4cncc(O[C@@H]5CCCNC5)n4)c3c2)n1 = 5.99
3. COc1cncc(-c2ccc3[nH]nc(-c4cncc(N5CCC(N)CC5)n4)c3c2)c1 = 6.74
4. O[C@H]1CCCN(c2cncc(-c3n[nH]c4ccc(-c5c(F)cccc5F)cc34)n2)C1 = 5.79

###

Target: full length recombinant Pim-3 protein (Homo sapiens, UniProt Q86V86)
Construct: by full length recombinant Pim-1, Pim-2, or Pim-3 protein
Assay: Pim-3 enzyme assay (HTRF, phosphorylation of biotinylated-BAD (S112) peptide)
Settings: read-out: Pim3 IC50
pIC50: −log10 of the molar value.
Here, each record is paired with measured pIC50 data.
endpoint-name: pIC50

1. C1=C(c2ccc3[nH]nc(-c4cncc(O[C@@H]5CCCNC5)n4)c3c2)CCOC1 = 8.15
2. NC1CCN(c2cncc(-c3n[nH]c4ccc(-c5cncnc5)cc34)n2)CC1 = 8.30
3. CNc1nccc(-c2n[nH]c3ccc(-c4c(F)cccc4F)cc23)n1 = 6.76
4. CC(C)Oc1cncc(-c2ccc3[nH]cc(-c4cccc(-n5cccn5)n4)c3c2)n1 = 6.82
5. Fc1cccc(F)c1-c1ccc2[nH]nc(-c3cncc(N4CCOCC4)n3)c2c1 = 7.04
6. CC(C)Oc1cncc(-c2ccc3[nH]cc(-c4cncc(O[C@@H]5CCCNC5)n4)c3c2)n1 = 7.40
7. c1cc(C2CC2)cc(-c2ccc3[nH]nc(-c4cncc(O[C@@H]5CCCNC5)n4)c3c2)n1 = 7.49
8. NC1CCN(c2cncc(-c3n[nH]c4ccc(-c5ccnc(N6CCOCC6)n5)cc34)n2)CC1 = 8.70

###

Molecular target: full length recombinant Pim-2 protein (Homo sapiens, UniProt Q9P1W9)
Construct: by full length recombinant Pim-1, Pim-2, or Pim-3 protein; hexahistidine tag followed by a thrombin cleavage site (N); made in house; host or cells: Sf9 (baculovirus) or E. coli (pET28)
Sequence (Q9P1W9 whole entry): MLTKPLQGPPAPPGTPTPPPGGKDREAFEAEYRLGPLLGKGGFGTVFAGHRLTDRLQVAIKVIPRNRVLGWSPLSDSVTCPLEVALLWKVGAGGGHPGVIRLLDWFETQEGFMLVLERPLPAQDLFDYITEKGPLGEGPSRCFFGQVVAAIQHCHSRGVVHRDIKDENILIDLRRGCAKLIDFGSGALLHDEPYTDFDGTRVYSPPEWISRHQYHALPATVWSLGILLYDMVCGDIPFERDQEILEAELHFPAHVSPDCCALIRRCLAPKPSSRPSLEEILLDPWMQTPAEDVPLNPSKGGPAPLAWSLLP
Experiment: Pim-2 enzyme assay (HTRF, phosphorylation of biotinylated-BAD (S112) peptide)
Format: biochemical
Conditions: enzyme assay, Pim-2; read-out: Pim2_IC50
pIC50: −log10 of the molar value.
Rule: satisfied for pIC50 not less than 7, not satisfied for anything less.

1) CCCNC(=O)c1ccc(F)c(-c2ccc3[nH]nc(-c4cncc(N5CCC(N)CC5)n4)c3c2)c1 = satisfied
2) Fc1cccc(F)c1-c1ccc2[nH]cc(-c3cncc(O[C@@H]4CCCNC4)n3)c2c1 = satisfied
3) NC1CCN(c2cncc(-c3n[nH]c4ccc(-c5cccc6c5C5(CCOCC5)CN6)cc34)n2)CC1 = not satisfied
4) O=C(NC1CC1)c1ccc(F)c(-c2ccc3[nH]nc(-c4cncc(O[C@@H]5CCCNC5)n4)c3c2)c1 = satisfied
5) Nc1cncc(-c2ccc3[nH]nc(-c4cncc(N5CCC(N)CC5)n4)c3c2)c1 = satisfied
6) CC(C)NC(=O)c1ccc(F)c(-c2ccc3[nH]nc(-c4cncc(N5CCC(N)CC5)n4)c3c2)c1 = satisfied
7) c1cc2[nH]nc(-c3cncc(O[C@@H]4CCCNC4)n3)c2cc1-c1ccc2nncn2c1 = not satisfied
8) CC(C)Nc1cncc(-c2n[nH]c3ccc(-c4c(F)cccc4F)cc23)n1 = not satisfied
9) COc1cccc(-c2ccc3[nH]nc(-c4cncc(N5CCC(N)CC5)n4)c3c2)c1F = satisfied
10) Nc1ncc(-c2ccc3[nH]nc(-c4cncc(N5CCC(N)CC5)n4)c3c2)cn1 = satisfied
11) NC1CCN(c2cncc(-c3c[nH]c4ccc(NC(=O)c5ccccc5)cc34)n2)CC1 = not satisfied
12) COc1cccc(-c2ccc3[nH]nc(-c4cncc(O[C@@H]5CCCNC5)n4)c3c2)c1F = satisfied
